System: Hs578T
measurement-description: normalised response (% of control), CellTiter-Glo; higher = more viable cells (100 = DMSO, 0 = benzethonium chloride kill control)
run-conditions: incubation time: 72 h
quantity-measured: normalised response (%)
Respond numerically; units are % and should not be typed.

compound | quantity-measured | observed
CC(=O)N(O)CCCCCNC(=O)CCC(=O)N(O)CCCCCNC(=O)CCC(=O)N(O)CCCCCN [Deferoxamine] (100 nM) | normalised response | 101
CC1=C2C[C@H]3[C@@H](CC=C4C[C@@H](O)CC[C@@]43C)[C@@H]2CC[C@]12O[C@@H]1C[C@H](C)CN[C@H]1[C@H]2C [Cyclopamine] (100 nM) | normalised response | 105
CC(=O)O[C@@]12CO[C@@H]1C[C@H](O)[C@@]1(C)C(=O)[C@H](O)C3=C(C)[C@@H](OC(=O)[C@H](O)[C@@H](NC(=O)OC(C)(C)C)c4ccccc4)C[C@@](O)([C@@H](OC(=O)c4ccccc4)[C@H]21)C3(C)C [Docetaxel] (10 nM) | normalised response | 28.1

Now for another entry.
Bench note, Hs578T: CC(C)(C)c1cnc(CSc2cnc(NC(=O)C3CCNCC3)s2)o1 [SNS-032] (100 nM) , normalised response reads 55.6

====

System: HDQ-P1
measurement-description: normalised response (% of control), CellTox Green; higher = less cell death (100 = DMSO, 0 = benzethonium chloride kill control)
run-conditions: incubation time: 72 h
Listing: normalised response of selected molecules
Respond numerically; units are % and should not be typed.

molecule | observed
COc1cc2c(cc1O)CC[C@@H]1[C@@H]2CC[C@]2(C)[C@@H](O)CC[C@@H]12 [2-methoxyestradiol] (10000 nM) | 94.4
Nc1ncn([C@@H]2O[C@H](CO)[C@@H](O)[C@H]2O)c(=O)n1 [Azacitidine] (100 nM) | 64.8

Now for another entry.
// field: normalised response; key: CC(=O)N(O)CCCCCNC(=O)CCC(=O)N(O)CCCCCNC(=O)CCC(=O)N(O)CCCCCN [Deferoxamine] (10000 nM) ; value = 104

====

Listing: normalised response of selected compounds
Test system: CAL-120
measurement-description: normalised response (% of control), CellTiter-Glo; higher = more viable cells (100 = DMSO, 0 = benzethonium chloride kill control)
run-conditions: incubation time: 72 h
Respond numerically; units are % and should not be typed.

Consider the reported normalised response for these compounds:
compound | unit-abbrev | normalised response
Cn1cc(C2=Nc3cc(NC(=O)C(N)C4CCCCC4)cc4c3C2=CNNC4=O)cn1 (stereo not given) (100 nM) | % | 89
CC1=C2C[C@H]3[C@@H](CC=C4C[C@@H](O)CC[C@@]43C)[C@@H]2CC[C@]12O[C@@H]1C[C@H](C)CN[C@H]1[C@H]2C [Cyclopamine] (100 nM) | % | 104
Cc1ccc([N+](=O)[O-])cc1S(=O)(=O)N(C)/N=C/c1cnc2ccc(Br)cn12 [PIK-75] (100 nM) | % | 38.3
COc1cc(F)c(F)c(Nc2ccc(I)cc2F)c1NS(=O)(=O)C1(C[C@H](O)CO)CC1 [Refametinib] (100 nM) | % | 87.7

Now for another entry.
Bench note, CAL-120: CC(=O)c1c(C)c2cnc(Nc3ccc(N4CCNCC4)cn3)nc2n(C2CCCC2)c1=O [Palbociclib] (100 nM) , normalised response reads 86.4
